ASSAY_SYSTEM: ACVR2A (human) (UniProt P27037)
Sequence (P27037 whole entry, looked up): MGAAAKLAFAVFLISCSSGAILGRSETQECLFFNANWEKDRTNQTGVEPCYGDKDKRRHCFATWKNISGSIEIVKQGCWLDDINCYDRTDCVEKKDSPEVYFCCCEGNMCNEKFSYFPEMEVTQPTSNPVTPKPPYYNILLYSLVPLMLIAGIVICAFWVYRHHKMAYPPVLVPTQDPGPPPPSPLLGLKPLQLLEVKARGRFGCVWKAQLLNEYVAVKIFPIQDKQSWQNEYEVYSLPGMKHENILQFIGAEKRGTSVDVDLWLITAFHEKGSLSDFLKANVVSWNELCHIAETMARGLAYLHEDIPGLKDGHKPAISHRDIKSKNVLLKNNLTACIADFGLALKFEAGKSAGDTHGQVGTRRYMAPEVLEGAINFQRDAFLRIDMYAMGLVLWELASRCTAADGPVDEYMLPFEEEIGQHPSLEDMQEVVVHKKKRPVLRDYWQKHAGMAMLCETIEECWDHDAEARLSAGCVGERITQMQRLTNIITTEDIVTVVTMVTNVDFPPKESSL
TEST_DESCRIPTION: KINOMEscan competition binding
CONDITION_INFO: compound 10.0 µM
READOUT_LABEL: kinase still bound, per cent of control (%)
Lab book: enter the figure in %, no units written.

Examples from the recorded data:
COc1cc2ncn(-c3cc(OCc4ccccc4C(F)(F)F)c(C(N)=O)s3)c2cc1OC : 79
CNC(=O)c1cc(Oc2ccc(NC(=O)Nc3ccc(Cl)c(C(F)(F)F)c3)cc2)ccn1 : 100
O=C1NC(=O)/C(=C/c2ccc3nccc(-c4ccncc4)c3c2)S1 : 83
CCN(CC)CCCCNc1ncc2c(n1)N(C)C(=O)N(c1c(Cl)c(OC)cc(OC)c1Cl)C2 : 100

Please find the next molecule below.
Req: Recorded kinase still bound, per cent of control for COc1cc(N2CCN(C)CC2)ccc1Nc1ncc2c(n1)N(C)c1ccccc1C(=O)N2C , please?
Resp: 100

* * *

ASSAY_SYSTEM: CDK17 (human) (UniProt Q00537)
Sequence (Q00537 whole entry, looked up): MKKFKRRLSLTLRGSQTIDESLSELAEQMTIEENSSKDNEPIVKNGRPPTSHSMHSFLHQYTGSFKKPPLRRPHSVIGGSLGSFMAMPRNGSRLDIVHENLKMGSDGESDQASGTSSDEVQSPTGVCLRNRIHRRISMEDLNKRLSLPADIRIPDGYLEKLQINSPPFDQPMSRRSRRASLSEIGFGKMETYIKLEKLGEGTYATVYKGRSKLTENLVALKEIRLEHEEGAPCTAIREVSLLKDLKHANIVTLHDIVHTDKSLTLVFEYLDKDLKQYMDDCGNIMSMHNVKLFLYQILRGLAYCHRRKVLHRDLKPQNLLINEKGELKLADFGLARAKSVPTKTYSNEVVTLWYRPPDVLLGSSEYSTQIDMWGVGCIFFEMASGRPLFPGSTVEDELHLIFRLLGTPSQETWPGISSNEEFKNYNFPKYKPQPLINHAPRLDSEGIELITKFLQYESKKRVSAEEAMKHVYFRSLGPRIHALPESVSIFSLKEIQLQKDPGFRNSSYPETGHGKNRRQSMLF
TEST_DESCRIPTION: KINOMEscan competition binding
CONDITION_INFO: compound 10.0 µM
kinase still bound, per cent of control by entry:
The answer should read as a number with its unit following.

Example entries and their recorded answers appear below.
CNC(=O)c1cc(Oc2ccc(NC(=O)Nc3ccc(Cl)c(C(F)(F)F)c3)cc2)ccn1 : 17%
C=CC(=O)Nc1ccc(CN(C(=O)Nc2c(Cl)c(OC)cc(OC)c2Cl)c2cc(Nc3ccc(N4CCN(C)CC4)cc3)ncn2)cc1 : 100%

Req: Tell me the measured kinase still bound, per cent of control of COc1ccc(N(C(=O)Oc2c(C)cccc2C)c2ccnc(Nc3ccc(N4CCN(C)CC4)cc3)n2)c(OC)c1 , please.
Resp: 80%

* * *

Entries and their kinase still bound, per cent of control values follow.
ASSAY_SYSTEM: RET (human)
TEST_DESCRIPTION: KINOMEscan competition binding
CONDITION_INFO: compound 10.0 µM
Just the number in %, nothing appended.

COc1cc(N2CCN(C)CC2)ccc1Nc1ncc2c(n1)N(C)c1ccccc1C(=O)N2C : 100
C=CC(=O)Nc1ccc(CN(C(=O)Nc2c(Cl)c(OC)cc(OC)c2Cl)c2cc(Nc3ccc(N4CCN(C)CC4)cc3)ncn2)cc1 : 0.6
CN(C)C/C=C/C(=O)Nc1ccc(C(=O)Nc2cccc(Nc3nccc(-c4cccnc4)n3)c2)cc1 : 79

Req: # query: kinase still bound, per cent of control of entry C=CC(=O)Nc1cc(-n2c(=O)ccc3cnc4ccc(-c5cn[nH]c5)cc4c32)ccc1C
Resp: 55

* * *

ASSAY_SYSTEM: DYRK1A (human) (UniProt Q13627)
TEST_DESCRIPTION: KINOMEscan competition binding
CONDITION_INFO: compound 10.0 µM
READOUT_LABEL: kinase still bound, per cent of control (%)
State the answer as a number, implicitly in %.

A selection of reference data follows.
CCN1CCN(C(=O)Cc2ccc(Nc3ncc(F)c(Nc4ccc(C(=O)Nc5ccccc5Cl)cc4)n3)cc2)CC1 : 47
C[C@@H](Oc1cc(-c2cnn(C3CCNCC3)c2)cnc1N)c1c(Cl)ccc(F)c1Cl : 100
N#CCNC(=O)c1ccc(-c2ccnc(Nc3ccc(N4CCOCC4)cc3)n2)cc1 : 66
COc1cc(C(=O)N2CCC(N3CCN(C)CC3)CC2)ccc1Nc1ncc2c(n1)N(C)c1ccccc1C(=O)N2C : 99
O=C1NC(=O)/C(=C/c2ccc3nccc(-c4ccncc4)c3c2)S1 : 0
CS(=O)(=O)N1CCN(Cc2cc3nc(-c4cccc5[nH]ncc45)nc(N4CCOCC4)c3s2)CC1 : 100

Req: Form: Entry = COc1cc(N2CCN(C)CC2)ccc1Nc1ncc2c(n1)N(C)c1ccccc1C(=O)N2C | System = DYRK1A (human) (UniProt Q13627) | kinase still bound, per cent of control = ____
Resp: 100

Req: Form entry - test system: DYRK1A (human) (UniProt Q13627); read-out: kinase still bound, per cent of control; compound: CN(C)C/C=C/C(=O)Nc1ccc(C(=O)Nc2cccc(Nc3nccc(-c4cccnc4)n3)c2)cc1
Resp: 28
